System: MDA-MB-468
procedure_details: normalised response (% of control), CellTiter-Glo; higher = more viable cells (100 = DMSO, 0 = benzethonium chloride kill control)
condition_label: incubation time: 72 h
property: normalised response (%)
Could you give me the number in %? Just the number is fine.

The following compounds have reported results that may help.
# compound, observed_measurement
records = [
    ("N#CCNC(=O)c1ccc(-c2ccnc(Nc3ccc(N4CCOCC4)cc3)n2)cc1 [Momelotinib] (10 nM)", 92.8),
    ("CNCc1ccc(-c2[nH]c3cc(F)cc4c3c2CCNC4=O)cc1 [Rucaparib] (1000 nM)", 93.5),
    ("Cc1ccc(-n2nc(C(C)(C)C)cc2NC(=O)Nc2ccc(OCCN3CCOCC3)c3ccccc23)cc1 [Doramapimod] (10 nM)", 94),
]

Determine its reported normalised response: CCC1=C[C@@H]2CN(C1)Cc1c([nH]c3ccccc13)[C@@](C(=O)OC)(c1cc3c(cc1OC)N(C)[C@H]1[C@@](O)(C(=O)OC)[C@H](OC(C)=O)[C@]4(CC)C=CCN5CC[C@]31[C@@H]54)C2 [Vinorelbine] (1000 nM)
30.3

Quickly give me recorded normalised response for Cc1ccc(C(=O)N(CCCN)[C@@H](c2oc3cc(Cl)ccc3c(=O)c2Cc2ccccc2)C(C)C)cc1 (10 nM)
90.7

Query normalised response for N.N.[Cl][Pt][Cl] [Cisplatin] (1 nM)
94.9

Find the measured normalised response of C#Cc1cccc(Nc2ncnc3cc(OCCOC)c(OCCOC)cc23)c1 [Erlotinib] (10 nM) and report it.
105

Recall and state the measured normalised response for CC(=O)Nc1ccc(C(=O)Nc2ccccc2N)cc1 [Tacedinaline] (1 nM) .
98.3

State its normalised response for this compound: C[C@]12CC[C@@H]3c4ccc(O)cc4C[C@@H](CCCCCCCCC[S+]([O-])CCCC(F)(F)C(F)(F)F)[C@H]3[C@@H]1CC[C@@H]2O (stereo partly drawn) [Fulvestrant] (0.1 nM)
101

# return recorded normalised response for entry CO[C@H]1/C=C\C=C(/C)C(=O)NC2=CC(=O)C(NCCN(C)C)=C(C[C@@H](C)C[C@H](OC)[C@H](O)[C@@H](C)/C=C(\C)[C@@H]1OC(N)=O)C2=O [Alvespimycin] (0.1 nM)
116

For the compound CN(C)/N=N/c1[nH]cnc1C(N)=O [Dacarbazine] (1 nM) , give its reported normalised response.
102

Check the records and state normalised response for C[C@@H](Oc1cc(-c2cnn(C3CCNCC3)c2)cnc1N)c1c(Cl)ccc(F)c1Cl [Crizotinib] (100 nM)
96.1

For the compound O=C1CCC(N2C(=O)c3ccccc3C2=O)C(=O)N1 (stereo not drawn) [Thalidomide] (10 nM) , give its measured normalised response value.
91.9

* * *

Tested on: HCC1599
procedure_details: normalised viability (% of control), CellTiter-Blue; higher = more viable cells (about 100 = DMSO control)
condition_label: 10000 nM; incubation time: 72 h
normalised viability reference
Kindly answer with a numeric value in %, unit omitted.

# compound, observed_measurement
data = [
    ("CNCc1ccc(-c2[nH]c3cc(F)cc4c3c2CCNC4=O)cc1", 96.2),
    ("C#Cc1cccc(Nc2ncnc3cc(OCCOC)c(OCCOC)cc23)c1", 54.8),
    ("O=C1CCC(N2C(=O)c3ccccc3C2=O)C(=O)N1 (stereo not given) [Thalidomide]", 102),
    ("COc1cc([C@@H]2c3cc4c(cc3[C@@H](O[C@@H]3O[C@@H]5CO[C@@H](C)O[C@H]5[C@H](O)[C@H]3O)[C@H]3COC(=O)[C@H]23)OCO4)cc(OC)c1O [Etoposide]", 72.3),
]

Now for another entry.
Consider the compound "NCC(=O)CCC(=O)O" . State its measured normalised viability.
90.8

* * *

Attribute: drug sensitivity score
Tested on: HCC1143
procedure_details: drug sensitivity score (DSS), CellTox Green (DSS (AUC-based score)); higher = stronger drug effect (viability inhibition or cytotoxicity); extreme values may be limits of the assay
condition_label: incubation time: 72 h
Just the number, please, no unit attached.

Consider the reported drug sensitivity score for these molecules:
# molecule, drug sensitivity score
records = [
    ("CO[C@H]1/C=C\\C=C(/C)C(=O)NC2=CC(=O)C(NCCN(C)C)=C(C[C@@H](C)C[C@H](OC)[C@H](O)[C@@H](C)/C=C(\\C)[C@@H]1OC(N)=O)C2=O [Alvespimycin]", 9.99),
    ("CC(C)Cn1cnc2c(N)nc3ccccc3c21 [Imiquimod]", 0),
    ("O=C(O)c1ccc(-c2c[nH]c3ncc(-c4ccccc4)cc23)cc1C1CCCC1", 0),
    ("CN(C)/N=N/c1[nH]cnc1C(N)=O [Dacarbazine]", 0),
]

Provide only the value of recorded drug sensitivity score for NC(=O)Nc1cc(-c2cccc(F)c2)sc1C(=O)N[C@H]1CCCNC1 [AZD7762]
0

* * *

System: MFM-223
procedure_details: normalised response (% of control), CellTiter-Glo; higher = more viable cells (100 = DMSO, 0 = benzethonium chloride kill control)
condition_label: incubation time: 72 h
The following compounds are listed with their measured normalised response values.
Kindly answer with a numeric value in %, unit omitted.

Name the recorded normalised response of the compound listed here: O=C(O)c1ccc(-c2c[nH]c3ncc(-c4ccccc4)cc23)cc1C1CCCC1 (100 nM)
96.2

Please give measured normalised response of the following entry: C#Cc1cccc(Nc2ncnc3cc(OCCOC)c(OCCOC)cc23)c1 [Erlotinib] (100 nM)
103

Read off the recorded normalised response for C[C@@H](Oc1cc(-c2cnn(C3CCNCC3)c2)cnc1N)c1c(Cl)ccc(F)c1Cl [Crizotinib] (10 nM)
99.3

Give the measured normalised response for O=C1CCC(N2C(=O)c3ccccc3C2=O)C(=O)N1 (configuration not stated) [Thalidomide] (100 nM)
95.7

Please report normalised response for the following compound: COc1cc([C@@H]2c3cc4c(cc3[C@@H](O[C@@H]3O[C@@H]5CO[C@@H](C)O[C@H]5[C@H](O)[C@H]3O)[C@H]3COC(=O)[C@H]23)OCO4)cc(OC)c1O [Etoposide] (100 nM)
110

Look up and report measured normalised response for this entry: CCC(C)(C)C(=O)O[C@H]1C[C@@H](C)C=C2C=C[C@H](C)[C@H](CC[C@@H]3C[C@@H](O)CC(=O)O3)[C@H]21 [Simvastatin] (100 nM)
105

Read the entry Cc1ccc(-n2nc(C(C)(C)C)cc2NC(=O)Nc2ccc(OCCN3CCOCC3)c3ccccc23)cc1 [Doramapimod] (100 nM) and write its reported normalised response.
91.8

* * *

Test system: CAL-120
procedure_details: normalised response (% of control), CellTiter-Glo; higher = more viable cells (100 = DMSO, 0 = benzethonium chloride kill control)
condition_label: incubation time: 72 h
normalised response for assorted molecules
Write down the numeric answer in % and omit the unit.

# example entries with known answers
# molecule, measurement_target, observed_measurement
records = [
    ("N.N.[Cl][Pt][Cl] [Cisplatin] (10 nM)", "CAL-120", 108),
    ("N#CCNC(=O)c1ccc(-c2ccnc(Nc3ccc(N4CCOCC4)cc3)n2)cc1 [Momelotinib] (100 nM)", "CAL-120", 97.2),
    ("Cn1c(Nc2ccc(C(F)(F)F)cc2)nc2cc(Oc3ccnc(-c4ncc(C(F)(F)F)[nH]4)c3)ccc21 [RAF265] (10 nM)", "CAL-120", 107),
    ("Cc1ccc(-n2nc(C(C)(C)C)cc2NC(=O)Nc2ccc(OCCN3CCOCC3)c3ccccc23)cc1 [Doramapimod] (100 nM)", "CAL-120", 99.4),
]

Specify normalised response for COc1cc2ncnc(Nc3ccc(F)c(Cl)c3)c2cc1NC(=O)/C=C/CN1CCCCC1 [Dacomitinib] (10 nM) , system CAL-120.
100

Under CAL-120, report normalised response for CC(=O)Nc1ccc(C(=O)Nc2ccccc2N)cc1 [Tacedinaline] (10 nM)
102

Under CAL-120: report normalised response of O=P1(NCCCl)OCCCN1CCCl (stereo not drawn) [Ifosfamide] (100 nM) .
94.3

System CAL-120. Read-out normalised response. Item CCC1(c2ccc(N)cc2)CCC(=O)NC1=O (stereo not drawn) [Aminoglutethimide] (100 nM) . Report value.
108

* * *

Test system: HCC1599
procedure_details: normalised response (% of control), CellTiter-Glo; higher = more viable cells (100 = DMSO, 0 = benzethonium chloride kill control)
condition_label: incubation time: 72 h
This listing pairs compounds with measured normalised response.

Reference set, count: 5
# compound, normalised response
data = [
    ("COc1cc([C@@H]2c3cc4c(cc3[C@@H](O[C@@H]3O[C@@H]5CO[C@@H](C)O[C@H]5[C@H](O)[C@H]3O)[C@H]3COC(=O)[C@H]23)OCO4)cc(OC)c1O [Etoposide] (1000 nM)", "63.5%"),
    ("CCC1(c2ccc(N)cc2)CCC(=O)NC1=O (stereo unspecified) [Aminoglutethimide] (10 nM)", "97%"),
    ("C[C@@H](Oc1cc(-c2cnn(C3CCNCC3)c2)cnc1N)c1c(Cl)ccc(F)c1Cl [Crizotinib] (100 nM)", "114%"),
    ("O=P1(NCCCl)OCCCN1CCCl (stereo unspecified) [Ifosfamide] (10 nM)", "89.3%"),
    ("CNCc1ccc(-c2[nH]c3cc(F)cc4c3c2CCNC4=O)cc1 [Rucaparib] (1000 nM)", "94.4%"),
]

For the next question, use this compound.
Provide only the value of recorded normalised response for COc1cc2ncnc(Nc3ccc(F)c(Cl)c3)c2cc1NC(=O)/C=C/CN1CCCCC1 [Dacomitinib] (1 nM)
102%

Origin of values: the supplement of paper PMC4862054
